B1: ATE1 (parent)
chain: DYFPSEDFYRCGYCKNESGSRSNG

- Variants of: B1
- assay protocol: protein stability index of a GFP-peptide fusion (GPS, HEK-293T) (PSI 1-6); higher = more stable;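 further: lentivirally expressed fusions sorted by FACS into six bins by GFP to DsRed ratio, PSI derived from sequencing read proportions per bin multiplied by bin number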
- study conditions: c terminus: a fixed tail appended
Assignment: determine reported protein stability index for the given variants.
Give the figure only, with no unit attached.

For S5K , what is its reported protein stability index?
2.02

For E6H , what is its reported protein stability index?
2.17

For Y13I , what is its reported protein stability index?
2.91

For E6Y , what is its reported protein stability index?
1.74

For N23Q , what is its reported protein stability index?
2.53

For Y13P , what is its reported protein stability index?
3.75

For E6P , what is its reported protein stability index?
2.24

For D1E , what is its reported protein stability index?
1.65

For G19S , what is its reported protein stability index?
2.15

For P4S , what is its reported protein stability index?
3.09

For C14R , what is its reported protein stability index?
3.8

For R21I , what is its reported protein stability index?
1.79

For D1C , what is its reported protein stability index?
2.26

For E6S , what is its reported protein stability index?
1.8

For C11D , what is its reported protein stability index?
4.21

For N23M , what is its reported protein stability index?
1.52

For S20I , what is its reported protein stability index?
2.01

For S18H , what is its reported protein stability index?
1.95

For C11E , what is its reported protein stability index?
4.92

For S20L , what is its reported protein stability index?
1.33

For P4R , what is its reported protein stability index?
1.79

For Y13G , what is its reported protein stability index?
3.4

For D7S , what is its reported protein stability index?
2.24

For E6Q , what is its reported protein stability index?
1.92

For N16T , what is its reported protein stability index?
1.97

For C11H , what is its reported protein stability index?
4.4

For G19R , what is its reported protein stability index?
1.76

For Y2H , what is its reported protein stability index?
2.37

For F3H , what is its reported protein stability index?
1.8

For R21P , what is its reported protein stability index?
2.69

For C11N , what is its reported protein stability index?
3.84

For Y13M , what is its reported protein stability index?
3.8

For S22E , what is its reported protein stability index?
2.52

For S18W , what is its reported protein stability index?
2.05

For F8E , what is its reported protein stability index?
3.77

For G24H , what is its reported protein stability index?
2.04

For N16C , what is its reported protein stability index?
1.47

For C14S , what is its reported protein stability index?
3.94

For S20Y , what is its reported protein stability index?
1.75

For F8G , what is its reported protein stability index?
2.48
